Numbers sourced from patent US4145554A.

- Test system: Vibrio coli 3811
- assay_text: in vitro tube dilution test (MIC)
- Assay type: cell-based
- details: Campylobacter coli; Vibrio coli 3811, tube dilution; read-out: MIC
I'd appreciate it if you could supply MIC values for the items below.
A number alone suffices; assume µg/mL.

Prompt: Complete the entry with MIC for CCOC(Cn1cc(C#N)c([N+](=O)[O-])n1)OCC [Compound 67]
Response: 50

Prompt: Complete the entry with MIC for CC(=O)Cn1cc(C(N)=O)c([N+](=O)[O-])n1 [Compound 9]
Response: 6.25

Prompt: Complete the entry with MIC for CC=CCn1cc(C(N)=O)c([N+](=O)[O-])n1 [Compound 75]
Response: 12.5

Prompt: Complete the entry with MIC for CCCCNC(=O)c1cn(CCO)nc1[N+](=O)[O-] [Compound 85]
Response: 50

Prompt: Complete the entry with MIC for CC(C)NC(=O)c1cn(CCO)nc1[N+](=O)[O-] [Compound 88]
Response: 50

Prompt: Complete the entry with MIC for CNc1nnc(-c2cn(C)nc2[N+](=O)[O-])s1 [Compound 2]
Response: 25

Prompt: Complete the entry with MIC for NC(=O)OCCn1cc(C(N)=O)c([N+](=O)[O-])n1 [Compound 93]
Response: 50

Prompt: Complete the entry with MIC for C=CCn1cc(C(N)=O)c([N+](=O)[O-])n1 [Compound 16, 1-allyl-3-nitro-4-pyrazolecarboxamide]
Response: 3.12

Prompt: Complete the entry with MIC for CCOCCn1cc(C#N)c([N+](=O)[O-])n1 [Compound 84]
Response: 25

###

- System: Staphylococcus aureus sp. 1130
- assay_text: in vitro tube dilution test (MIC)
- Assay type: cell-based
- details: Staphylococcus aureus sp. 1130, tube dilution; read-out: MIC
I'd appreciate it if you could supply log10 MIC values for the items below.
Heads up, the numbers here are log10 of MIC in µg/mL units.

Prompt: Complete the entry with log10 MIC for `CS(=O)(=O)CCn1cc(C(N)=O)c([N+](=O)[O-])n1`
Response: 1.40

Prompt: Complete the entry with log10 MIC for `N#Cc1cn(Cc2ccccc2)nc1[N+](=O)[O-]`
Response: 2.00

Prompt: Complete the entry with log10 MIC for `NC(=O)c1cn(CC2CC2)nc1[N+](=O)[O-]`
Response: 1.70

Prompt: Complete the entry with log10 MIC for `CCOCCn1cc(C#N)c([N+](=O)[O-])n1`
Response: 1.70

Prompt: Complete the entry with log10 MIC for `NC(=O)OCCn1cc(C(N)=O)c([N+](=O)[O-])n1`
Response: 0.49

Prompt: Complete the entry with log10 MIC for `CC(=O)Cn1cc(C(N)=O)c([N+](=O)[O-])n1`
Response: 0.80

###

- Test system: Pasteurella multocida
- assay_text: in vitro tube dilution test (MIC)
- Type: cell-based
- details: tube dilution, read-out: MIC
- Excerpt: Our compound, 1-(2-hydroxyethyl)-3-nitro-4-pyrazolecarboxamide, has been extensively tested in vitro to determine the range of microorganisms against which it is active. The table of data below reports the minimum inhibitory concentration (MIC) at which the compound is effective in controlling a variety of microorganisms in a standard tube dilution test system. The MIC is reported as micrograms of compound per milliliter. […]
readout: MIC

Prompt: Complete the entry with MIC for `CCOCCn1cc(C(N)=O)c([N+](=O)[O-])n1`
Response: 25 µg/mL

Prompt: Complete the entry with MIC for `NC(=O)c1cn(CCCO)nc1[N+](=O)[O-]`
Response: 6.25 µg/mL

Prompt: Complete the entry with MIC for `NC(=O)OCCn1cc(C(N)=O)c([N+](=O)[O-])n1`
Response: < 1.56 µg/mL

Prompt: Complete the entry with MIC for `CC(=O)Cn1cc(C(N)=O)c([N+](=O)[O-])n1`
Response: > 50 µg/mL

Prompt: Complete the entry with MIC for `N#Cc1cn(CCBr)nc1[N+](=O)[O-]`
Response: 12.5 µg/mL

Prompt: Complete the entry with MIC for `COC(=O)c1cn(CCO)nc1[N+](=O)[O-]`
Response: > 50 µg/mL

Prompt: Complete the entry with MIC for NC(=O)c1c[nH]nc1[N+](=O)[O-] [Compound 60, 3(5)-nitro-4-pyrazolecarboxamide]
Response: 25 µg/mL

Prompt: Complete the entry with MIC for `CC(=O)OCCn1cc(C(N)=O)c([N+](=O)[O-])n1`
Response: 25 µg/mL

Prompt: Complete the entry with MIC for `CCSCCn1cc(C#N)c([N+](=O)[O-])n1`
Response: > 50 µg/mL

Prompt: Complete the entry with MIC for `NC(=O)c1cn(CCCCl)nc1[N+](=O)[O-]`
Response: 25 µg/mL

Prompt: Complete the entry with MIC for `CCCCNC(=O)c1cn(CCO)nc1[N+](=O)[O-]`
Response: > 50 µg/mL

Prompt: Complete the entry with MIC for `CCS(=O)(=O)CCn1cc(C(N)=O)c([N+](=O)[O-])n1`
Response: 6.25 µg/mL

Prompt: Complete the entry with MIC for `CC=CCn1cc(C(N)=O)c([N+](=O)[O-])n1`
Response: 25 µg/mL

Prompt: Complete the entry with MIC for `CNC(=O)c1cn(CCO)nc1[N+](=O)[O-]`
Response: 0.78 µg/mL

Prompt: Complete the entry with MIC for `CC(C)NC(=O)c1cn(CCO)nc1[N+](=O)[O-]`
Response: 6.25 µg/mL

Prompt: Complete the entry with MIC for `CS(=O)(=O)CCn1cc(C(N)=O)c([N+](=O)[O-])n1`
Response: 12.5 µg/mL

Prompt: Complete the entry with MIC for `COCCn1cc(C(N)=O)c([N+](=O)[O-])n1`
Response: 50 µg/mL

Prompt: Complete the entry with MIC for `CCOC(Cn1cc(C#N)c([N+](=O)[O-])n1)OCC`
Response: 25 µg/mL

Prompt: Complete the entry with MIC for CCCCCCCCCn1cc(C(N)=O)c([N+](=O)[O-])n1 [Compound 48, 3-nitro-1-nonyl-4-pyrazolecarboxamide]
Response: 0.39 µg/mL

Prompt: Complete the entry with MIC for `N#Cc1cn(CCCCl)nc1[N+](=O)[O-]`
Response: > 50 µg/mL
